molecular target: human P2X3 receptor (Homo sapiens (Human), UniProt P56373); assay: Evaluation of human P2X3 receptor inhibitory activity (Fluo-3 calcium fluorescence, FDSS 3000, ATP stimulation); type: cell-based; conditions: human P2X3 receptor, Test Example 1;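 further: stimulus was 50 nM ATP with fluorescence followed for 3 min, and the response per well was peak post-ATP fluorescence divided by the reading at measurement start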
Sequence (P56373 whole entry): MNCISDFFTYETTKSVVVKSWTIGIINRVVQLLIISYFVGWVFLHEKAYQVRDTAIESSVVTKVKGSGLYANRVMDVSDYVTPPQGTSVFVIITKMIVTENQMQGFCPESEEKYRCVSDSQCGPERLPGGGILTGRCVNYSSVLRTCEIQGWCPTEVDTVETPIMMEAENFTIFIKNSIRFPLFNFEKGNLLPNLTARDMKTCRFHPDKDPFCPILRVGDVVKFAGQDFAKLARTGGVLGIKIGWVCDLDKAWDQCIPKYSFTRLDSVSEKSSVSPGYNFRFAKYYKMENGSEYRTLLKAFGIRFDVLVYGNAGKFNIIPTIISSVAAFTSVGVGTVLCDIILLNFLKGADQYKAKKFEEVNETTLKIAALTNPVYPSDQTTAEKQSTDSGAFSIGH
MEASURED_ENDPOINT: IC50 (nM)
Answer in nM, number only, no unit symbol.

CC(C)Oc1ccc(/N=c2\[nH]c(=O)n(CC(C)(C)CC(=O)O)c(=O)n2Cc2ccc(Cl)cc2)cc1F [Compound I-0845]: 24

Data request, read-out IC50, for CC[C@@H](C)Oc1ccc(/N=c2\[nH]c(=O)n(C[C@H](C)C(=O)O)c(=O)n2Cc2ccc(C)cc2)cc1C [Compound I-0853]
13

Data request, read-out IC50, for CCn1c(=O)[nH]/c(=N\c2ccc(Oc3ccn[nH]3)cc2)n(Cc2ccc(Cl)cc2)c1=O [Compound I-2455]
63

Data request, read-out IC50, for Cc1ccc(Cn2c(=O)n(C[C@H](C)C(=O)O)c(=O)[nH]/c2=N\c2ccc(C(C)C)c(Cl)c2)cc1 [Compound I-1494]
571
